Data origin, for the record: patent US12540148B2

Attribute: MIC
Tested on: Staphylococcus aureus 4591
TEST NAME: MIC, microdilution method
Type: cell-based
STATED CONDITIONS: Staphylococcus aureus, 4591

[
  {
    "COMPOUND": "CCCCCCCCCCOP(=O)(CCN(CCCN)CCCN)OCCCCCCCCCCOP(=O)(CCN(CCCN)CCCN)OCCCCCCCCCC (stereo not shown) [Example 45]",
    "EXPERIMENTAL TARGET": "Staphylococcus aureus 4591",
    "MIC / µg/mL": 4
  },
  {
    "COMPOUND": "CCCCOP(=O)(CCN(CCCN)CCCN)OCCCCCCCCCCOP(=O)(CCN(CCCN)CCCN)OCCCC.Cl.Cl.Cl.Cl.Cl.Cl (stereo not shown) [Example 41]",
    "EXPERIMENTAL TARGET": "Staphylococcus aureus 4591",
    "MIC / µg/mL": 2
  },
  {
    "COMPOUND": "CCCCCCOP(=O)(CCN(CCN)CCN)OCCCCCCCCOP(=O)(CCN(CCN)CCN)OCCCCCC (stereo not shown) [Example 55]",
    "EXPERIMENTAL TARGET": "Staphylococcus aureus 4591",
    "MIC / µg/mL": 4
  },
  {
    "COMPOUND": "CC(C)COP(=O)(CCN(CCCN)CCCN)OCCCCCCCCCCCCCCOP(=O)(CCN(CCCN)CCCN)OCC(C)C (stereo not shown) [Example 51]",
    "EXPERIMENTAL TARGET": "Staphylococcus aureus 4591",
    "MIC / µg/mL": 2
  },
  {
    "COMPOUND": "CCCCOP(=O)(CCN(CCCN)CCCN)OCCCCCCCCCCCCCCOP(=O)(CCN(CCCN)CCCN)OCCCC.Cl.Cl.Cl.Cl.Cl.Cl (stereo not shown) [Example 52]",
    "EXPERIMENTAL TARGET": "Staphylococcus aureus 4591",
    "MIC / µg/mL": 1
  },
  {
    "COMPOUND": "CCCC/C=C\\CCOP(=O)(CCN(CCCN)CCCN)OCCCCCCOP(=O)(CCN(CCCN)CCCN)OCC/C=C\\CCCC (stereo not shown) [Example 57]",
    "EXPERIMENTAL TARGET": "Staphylococcus aureus 4591",
    "MIC / µg/mL": 1
  },
  {
    "COMPOUND": "CCCCCCOP(=O)(CCN(CCCN)CCCN)OCCCCCCCCCCOP(=O)(CCN(CCCN)CCCN)OCCCCCC.Cl.Cl.Cl.Cl (stereo not shown) [Example 43]",
    "EXPERIMENTAL TARGET": "Staphylococcus aureus 4591",
    "MIC / µg/mL": 0.5
  },
  {
    "COMPOUND": "CC(C)COP(=O)(CCN(CCCN)CCCN)OCCCCCCCCCCOP(=O)(CCN(CCCN)CCCN)OCC(C)C (stereo not shown) [Example 40]",
    "EXPERIMENTAL TARGET": "Staphylococcus aureus 4591",
    "MIC / µg/mL": 8
  },
  {
    "COMPOUND": "CCCCCOP(=O)(CCN(CCCN)CCCN)OCCCCCCCCCCCCOP(=O)(CCN(CCCN)CCCN)OCCCCC (stereo not shown) [Example 48]",
    "EXPERIMENTAL TARGET": "Staphylococcus aureus 4591",
    "MIC / µg/mL": 1
  },
  {
    "COMPOUND": "CCCCCOP(=O)(CCN(CCCN)CCCN)OCCCCCCCCCCCCCCOP(=O)(CCN(CCCN)CCCN)OCCCCC.Cl.Cl.Cl.Cl.Cl.Cl (stereo not shown) [Example 53]",
    "EXPERIMENTAL TARGET": "Staphylococcus aureus 4591",
    "MIC / µg/mL": 1
  },
  {
    "COMPOUND": "CCCCOP(=O)(CCN(CCN)CCN)OCCCCCCCCCCOP(=O)(CCN(CCN)CCN)OCCCC.Cl.Cl.Cl.Cl.Cl.Cl (stereo not shown) [Example 56]",
    "EXPERIMENTAL TARGET": "Staphylococcus aureus 4591",
    "MIC / µg/mL": 4
  },
  {
    "COMPOUND": "CCCCCOP(=O)(CCN(CCCN)CCCN)OCCCCCCCCOP(=O)(CCN(CCCN)CCCN)OCCCCC.Cl.Cl.Cl.Cl.Cl.Cl (stereo not shown) [Example 37]",
    "EXPERIMENTAL TARGET": "Staphylococcus aureus 4591",
    "MIC / µg/mL": 2
  },
  {
    "COMPOUND": "CCCCCOP(=O)(CCN(CCCN)CCCN)OCCCCCCCCCCOP(=O)(CCN(CCCN)CCCN)OCCCCC.Cl.Cl.Cl.Cl.Cl.Cl (stereo not shown) [Example 42]",
    "EXPERIMENTAL TARGET": "Staphylococcus aureus 4591",
    "MIC / µg/mL": 1
  },
  {
    "COMPOUND": "NCCCN(CCCN)CCP(=O)(OCCCCCCCCCCCCOP(=O)(CCN(CCCN)CCCN)OCCc1ccccc1)OCCc1ccccc1 (stereo not shown) [Example 50]",
    "EXPERIMENTAL TARGET": "Staphylococcus aureus 4591",
    "MIC / µg/mL": 1
  },
  {
    "COMPOUND": "CC(C)COP(=O)(CCN(CCCN)CCCN)OCCCCCCCCCCCCOP(=O)(CCN(CCCN)CCCN)OCC(C)C (stereo not shown) [Example 46]",
    "EXPERIMENTAL TARGET": "Staphylococcus aureus 4591",
    "MIC / µg/mL": 4
  },
  {
    "COMPOUND": "CCCC/C=C\\CCOP(=O)(CCN(CCCN)CCCN)OCCCCCOP(=O)(CCN(CCCN)CCCN)OCC/C=C\\CCCC (stereo not shown) [Example 58]",
    "EXPERIMENTAL TARGET": "Staphylococcus aureus 4591",
    "MIC / µg/mL": 128
  }
]
